- Target entity: Peroxisome proliferator-activated receptor gamma (Homo sapiens, UniProt P37231)
- Sequence (P37231 whole entry): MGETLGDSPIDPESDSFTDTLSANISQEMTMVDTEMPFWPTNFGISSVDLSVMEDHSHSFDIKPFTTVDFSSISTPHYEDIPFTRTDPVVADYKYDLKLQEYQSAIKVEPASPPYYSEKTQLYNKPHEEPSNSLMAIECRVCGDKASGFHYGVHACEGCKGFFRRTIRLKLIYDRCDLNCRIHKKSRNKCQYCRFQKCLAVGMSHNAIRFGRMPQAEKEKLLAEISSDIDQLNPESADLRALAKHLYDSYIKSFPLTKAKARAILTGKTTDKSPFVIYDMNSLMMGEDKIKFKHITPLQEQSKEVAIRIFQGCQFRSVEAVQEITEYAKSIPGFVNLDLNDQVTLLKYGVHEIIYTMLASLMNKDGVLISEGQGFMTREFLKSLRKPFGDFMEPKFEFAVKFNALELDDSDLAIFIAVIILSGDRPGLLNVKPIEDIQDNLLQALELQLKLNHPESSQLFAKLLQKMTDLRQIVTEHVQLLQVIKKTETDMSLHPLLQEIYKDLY
Endpoint label: EC50 (nM)

> print(dat)
                                   molecule                             target.entity  readout.number
1  O=C(O)CCCc1cc2cc(Cl)ccc2n1S(=O)(=O)c1ccc2ncsc2c1 [LANIFIBRANOR]  Peroxisome proliferator-activated receptor gamma (Homo sapiens, UniProt P37231)            1140

---

- Target entity: Peroxisome proliferator-activated receptor gamma (Homo sapiens) (UniProt P37231)
- Sequence (P37231 whole entry, the tested form may be a part): as the sequence (P37231 whole entry) above
- Assay remarks: Transactivation of human GAL4-fused PPARgamma LBD expressed in African green monkey COS7 cells co-expressing 5Gal4 pGL3 TK Luc after overnight incubation by luciferase reporter gene assay relative to rosiglitazone
- Assay type: cell-based
Record 1 whenever Emax is at 50% or higher; record 0 when lower.

> print(dat)
                                  mol.smiles  answer.label
 1  COc1cccc(S(=O)(=O)n2c(CCCC(=O)O)cc3cc(C(F)(F)F)ccc32)c1             0
 2  O=C(O)CCCc1cc2cc(C(F)(F)F)ccc2n1S(=O)(=O)c1ccc(Cl)cc1             0
 3  O=C(O)CCCc1cc2cc(Cl)ccc2n1S(=O)(=O)c1ccc2ncsc2c1             1
 4  Nc1nc2ccc(S(=O)(=O)n3c(CCCC(=O)O)cc4cc(Cl)ccc43)cc2s1             1
 5  O=C(O)COCc1cc2cc(Cl)ccc2n1S(=O)(=O)c1ccccc1             0
 6  Cc1nc2ccc(S(=O)(=O)n3c(CCCC(=O)O)cc4cc(Cl)ccc43)cc2s1             0
 7  COc1ccc(S(=O)(=O)n2c(CCCC(=O)O)cc3cc(C(F)(F)F)ccc32)cc1             0
 8  Cc1ccc2c(c1)cc(CCCC(=O)O)n2S(=O)(=O)c1ccccc1             0
 9  COc1ccccc1S(=O)(=O)n1c(CCCC(=O)O)cc2cc(C(F)(F)F)ccc21             0
10  O=C(O)CCCc1cc2cc(Cl)ccc2n1S(=O)(=O)c1ccc2ccccc2c1             0
11  Cc1nc2cc(S(=O)(=O)n3c(CCCC(=O)O)cc4cc(Cl)ccc43)ccc2s1             0
12  CN1CCOc2ccc(S(=O)(=O)n3c(CCCC(=O)O)cc4cc(Cl)ccc43)cc21             0
13  O=C(O)CCCc1cc2cc(Cl)ccc2n1S(=O)(=O)c1cccc2ccccc12             0
14  Cc1ccc(S(=O)(=O)n2c(CCCC(=O)O)cc3cc(Cl)ccc32)cc1             0
15  O=C(O)CCCCc1cc2cc(Cl)ccc2n1S(=O)(=O)c1ccccc1             0
16  Nc1nc2ccc(S(=O)(=O)n3c(CCCC(=O)O)cc4cc(Cl)ccc43)cc2o1             1
17  O=C(O)CCCc1cc2cc(C(F)(F)F)ccc2n1S(=O)(=O)c1cccc(OC(F)(F)F)c1             0
18  COc1cccc(S(=O)(=O)n2c(CCCC(=O)O)cc3cc(Cl)ccc32)c1             0
19  O=C(O)CCCc1cc2cc(C(F)(F)F)ccc2n1S(=O)(=O)c1ccc2ncsc2c1             1

Just for reference, ChEMBL document CHEMBL4020830 is where these values come from.
